Assignment: determine reported inhibition at 10 µM for the given compounds.
Target: human FXR (Homo sapiens, UniProt Q96RI1)
Sequence (Q96RI1 1-486): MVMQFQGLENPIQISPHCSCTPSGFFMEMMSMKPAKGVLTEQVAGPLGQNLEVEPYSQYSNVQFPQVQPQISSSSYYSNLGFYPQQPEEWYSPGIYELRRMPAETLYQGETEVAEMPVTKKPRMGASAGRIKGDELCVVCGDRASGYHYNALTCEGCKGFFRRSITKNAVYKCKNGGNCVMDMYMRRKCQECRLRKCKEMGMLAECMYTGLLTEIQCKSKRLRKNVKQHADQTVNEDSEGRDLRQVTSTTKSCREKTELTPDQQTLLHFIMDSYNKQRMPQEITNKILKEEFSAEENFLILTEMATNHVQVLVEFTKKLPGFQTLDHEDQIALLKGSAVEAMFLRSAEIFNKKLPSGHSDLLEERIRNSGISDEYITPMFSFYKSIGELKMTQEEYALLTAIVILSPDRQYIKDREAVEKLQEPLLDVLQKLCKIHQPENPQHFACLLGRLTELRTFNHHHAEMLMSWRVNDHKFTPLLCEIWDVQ
Experiment: cell-based luciferase reporter assay
Settings: HEK-293T
Quick reminder: number only, in %, skip the unit.

query: Which inhibition at 10 µM is listed for CC(C)CCC[C@@H](C)[C@H]1CCC([C@@H]2CC[C@H]3C[C@H](O)CC[C@]3(C)C2=O)[C@]1(C)CC(=O)O (stereo partly drawn) ?
result: 53.1

query: Which inhibition at 10 µM is listed for CC(C)CCC[C@@H](C)[C@H]1CCC([C@@H]2CC[C@H]3C[C@@H](O)CC[C@]3(C)C2=O)[C@]1(C)CC(=O)O (stereo partly drawn) ?
result: 14.1

query: Which inhibition at 10 µM is listed for CC(=O)O[C@@H]1CC[C@]2(C)C(=O)[C@H](C3CC[C@H]([C@H](C)CCCC(C)C)[C@@]3(C)CC(=O)O)CC[C@H]2C1 (stereo partly drawn) ?
result: 54.7

----------
Experiment: Cell-Titer Blue cytotoxicity assay
Assay type: cell-based
Settings: human, HEK293T cells
measured_quantity: viability at 10 µM

query: Which viability at 10 µM is listed for CC(=O)O[C@H]1CC[C@]2(C)C(=O)[C@H](C3CC[C@H]([C@H](C)CCCC(C)C)[C@@]3(C)CC(=O)O)CC[C@H]2C1 (stereo partly drawn) ?
result: > 100%

query: Which viability at 10 µM is listed for CC(C)CCC[C@@H](C)[C@H]1CCC([C@@H]2CC[C@H]3C[C@@H](O)CC[C@]3(C)C2=O)[C@]1(C)CC(=O)O (stereo partly drawn) ?
result: > 100%

query: Which viability at 10 µM is listed for CC(C)CCC[C@@H](C)[C@H]1CCC([C@@H]2CC[C@H]3C[C@H](O)CC[C@]3(C)C2=O)[C@]1(C)CC(=O)O (stereo partly drawn) ?
result: > 100%
